Target: human MAL (human) (UniProt P58753)
Test: P3 phage display panning on plate-immobilised MAL, after round 4, NGS

binder: KWFWDKLIYALSRNPH
NGS count, count: 2800

binder: LVAHEISKKMKIFATI
NGS count, count: 1670

binder: RGFLSHLRHHLQAKDH
NGS count, count: 15100

binder: YLKWGYPWFWDRLRFA
NGS count, count: 1680

binder: PNLRTKVLNYLMRTKT
NGS count, count: 26900

binder: SFFWNKLRYHLPAPQH
NGS count, count: 2300

binder: KNLFNELVSKNIRTFM
NGS count, count: 3260
